# Target under test: T1, 017-mut8 peptide (…)/HLA-A*02:01 complex on T2 cells (human)
# T1 construct: Alanine mutant at position 8; also called TLI-A8
# Method notes: flow cytometry, phage on peptide-loaded T2 cells
Known MFI of a selection of binders
Assay metric: MFI

{"Binder": "EXT017-28 scFv phage clone (scFv, full-length scFv with His+HA tags; also called EXT017-28 phage; phage clone #28) scFv: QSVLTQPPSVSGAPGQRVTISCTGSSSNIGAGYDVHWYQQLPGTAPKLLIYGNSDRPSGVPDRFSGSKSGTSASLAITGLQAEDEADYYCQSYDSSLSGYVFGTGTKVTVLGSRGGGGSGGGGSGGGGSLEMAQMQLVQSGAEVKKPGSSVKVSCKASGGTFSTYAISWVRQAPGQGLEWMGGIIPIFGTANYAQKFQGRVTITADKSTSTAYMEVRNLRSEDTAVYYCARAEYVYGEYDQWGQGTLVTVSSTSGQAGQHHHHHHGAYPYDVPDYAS", "Assay metric": "MFI", "Measured": 27500}
{"Binder": "EXT017-20 scFv phage clone (scFv, full-length scFv with His+HA tags; also called EXT017-20 phage) scFv: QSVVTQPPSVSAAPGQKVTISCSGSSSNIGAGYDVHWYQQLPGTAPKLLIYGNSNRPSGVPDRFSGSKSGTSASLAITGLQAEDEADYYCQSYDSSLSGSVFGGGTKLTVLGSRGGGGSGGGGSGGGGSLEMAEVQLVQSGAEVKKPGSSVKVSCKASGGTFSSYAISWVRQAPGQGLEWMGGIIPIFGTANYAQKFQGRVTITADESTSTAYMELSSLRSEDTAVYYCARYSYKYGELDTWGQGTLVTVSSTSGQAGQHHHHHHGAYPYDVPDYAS", "Assay metric": "MFI", "Measured": 11100}
{"Binder": "EXT017-32 scFv phage clone (scFv, also called EXT017-32 phage; phage clone #32) scFv: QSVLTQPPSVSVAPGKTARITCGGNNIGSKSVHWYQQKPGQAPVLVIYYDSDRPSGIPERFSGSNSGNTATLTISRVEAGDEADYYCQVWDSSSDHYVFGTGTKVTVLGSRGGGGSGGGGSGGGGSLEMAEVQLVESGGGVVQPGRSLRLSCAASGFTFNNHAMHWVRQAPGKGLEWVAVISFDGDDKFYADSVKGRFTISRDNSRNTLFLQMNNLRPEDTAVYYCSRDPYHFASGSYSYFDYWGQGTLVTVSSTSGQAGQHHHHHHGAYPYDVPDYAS", "Assay metric": "MFI", "Measured": 96.7}
{"Binder": "EXT017-53 scFv phage clone (scFv, full-length scFv with His+HA tags; also called EXT017-53 phage) scFv: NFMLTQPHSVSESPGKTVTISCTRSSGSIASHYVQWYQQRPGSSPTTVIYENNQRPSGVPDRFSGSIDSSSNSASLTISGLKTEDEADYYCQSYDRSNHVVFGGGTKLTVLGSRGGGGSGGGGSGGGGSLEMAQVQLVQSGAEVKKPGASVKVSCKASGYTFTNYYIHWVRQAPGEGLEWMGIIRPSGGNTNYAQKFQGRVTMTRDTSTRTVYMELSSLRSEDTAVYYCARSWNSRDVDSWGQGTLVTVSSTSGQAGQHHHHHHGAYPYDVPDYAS", "Assay metric": "MFI", "Measured": 12100}
{"Binder": "EXT017-17 scFv phage clone (scFv, fusion to the phage coat protein not described; also called EXT017-17 phage; phage clone #17) scFv: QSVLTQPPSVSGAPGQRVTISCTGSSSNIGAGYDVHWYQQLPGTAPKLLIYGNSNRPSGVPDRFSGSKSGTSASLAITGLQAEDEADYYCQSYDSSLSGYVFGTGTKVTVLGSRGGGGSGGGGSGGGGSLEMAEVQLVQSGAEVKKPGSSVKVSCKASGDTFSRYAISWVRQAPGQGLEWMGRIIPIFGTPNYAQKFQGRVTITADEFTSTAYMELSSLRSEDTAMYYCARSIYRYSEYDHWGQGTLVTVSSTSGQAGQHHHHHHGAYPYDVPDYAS", "Assay metric": "MFI", "Measured": 3590}
{"Binder": "EXT017-54 scFv phage clone (scFv, full-length scFv with His+HA tags; also called EXT017-54 phage) scFv: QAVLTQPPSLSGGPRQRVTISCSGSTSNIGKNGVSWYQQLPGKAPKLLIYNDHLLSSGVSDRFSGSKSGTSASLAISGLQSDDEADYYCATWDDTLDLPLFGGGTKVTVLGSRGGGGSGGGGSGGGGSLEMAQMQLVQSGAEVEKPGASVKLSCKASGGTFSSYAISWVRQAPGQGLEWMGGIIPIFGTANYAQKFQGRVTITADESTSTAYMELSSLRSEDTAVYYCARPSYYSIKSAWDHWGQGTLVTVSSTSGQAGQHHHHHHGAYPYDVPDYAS", "Assay metric": "MFI", "Measured": 5850}
{"Binder": "EXT017-27 scFv phage clone (scFv, full-length scFv with His+HA tags; also called EXT017-27 phage; phage clone #27) scFv: QAVLTQPPSVSVAPGKTARLTCGGNNIGSESVHWYQQKPGQAPLLVVYDDDDRPSGIPERFSGSNSGNTATLTISRVEAGDEADYYCQVWDRSSDHWFFGGGTKLTVLGSRGGGGSGGGGSGGGGSLEMAQVQLVQSGAEVKKPGASVKVSCKASGYTFTNYYIHWVRQAPGQGLEWMGIIRPSGGITNYAQKFQGRVSMTRDTSTSTVYMELSSLRSEDTAVYYCARSWDYFASNDFWGQGTLVTVSSTSGQAGQHHHHHHGAYPYDVPDYAS", "Assay metric": "MFI", "Measured": 6400}
